- Test System: T1, Human NKp30 (BKM0179) (human, UniProt O14931 19-135, limits assumed)
- T1 sequence (looked up): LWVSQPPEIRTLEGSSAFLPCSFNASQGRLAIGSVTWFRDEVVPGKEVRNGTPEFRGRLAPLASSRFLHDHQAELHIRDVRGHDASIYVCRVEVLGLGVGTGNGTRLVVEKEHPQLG
- Experimental Protocol: SPR (Biacore T200): human NKp30 BKM0179 captured via anti-mouse Fc on CM5, antibody as analyte, 1:1 fit

Binder: BJM1079 (scFv, only 'BJM0411 Parental'; also called BJM0411 Parental) scFv: EIQLLESGGGLVQPGGSLRLSCAVSGFSITTTGYHWNWVRQAPGKGLEWVGYIYSSGSTSYNPSLKSRFTISRDTSKNTFYLQMNSLRAEDTAVYYCARGDWHYFDYWGQGTMVTVSSGGGGSGGGGSGGGGSGGGGSDSVTTQSPLSLPVTLGQPASISCSGEKLSDKYVHWYQQRPGQSPRMLIYENDRRPSGVPDRFSGSNSGNDATLKISRVEAEDVGVYFCQFWDSTNSAVFGGGTKVEIK
Kd: 1.26 nM

Binder: BKM0145 (scFv, also called BJM0407 VH-N60A-VL-D92A-N95A) scFv: EIQLLESGGGLVQPGGSLRLSCAVSGFSITTTGYHWNWVRQAPGKGLEWVGYIYSSGSTSYAPSLKSRFTISRDTSKNTFYLQMNSLRAEDTAVYYCARGDWHYFDYWGQGTMVTVSSGGGGSGGGGSGGGGSGGGGSSSETTQPPSVSVSPGQTASITCSGEKLSDKYVHWYQQKPGQSPVMVIYENDRRPSGIPERFSGSNSGNTATLTISGTQAMDEADYFCQFWASTASAVFGGGTQLTVL
Kd: 4.2 nM

Binder: BKM0140 (scFv, also called BJM0407 VL-D92A) scFv: EIQLLESGGGLVQPGGSLRLSCAVSGFSITTTGYHWNWVRQAPGKGLEWVGYIYSSGSTSYNPSLKSRFTISRDTSKNTFYLQMNSLRAEDTAVYYCARGDWHYFDYWGQGTMVTVSSGGGGSGGGGSGGGGSGGGGSSSETTQPPSVSVSPGQTASITCSGEKLSDKYVHWYQQKPGQSPVMVIYENDRRPSGIPERFSGSNSGNTATLTISGTQAMDEADYFCQFWASTNSAVFGGGTQLTVL
Kd: 3.3 nM

Binder: BKM0141 (scFv, also called BJM0407 VL-N95A) scFv: EIQLLESGGGLVQPGGSLRLSCAVSGFSITTTGYHWNWVRQAPGKGLEWVGYIYSSGSTSYNPSLKSRFTISRDTSKNTFYLQMNSLRAEDTAVYYCARGDWHYFDYWGQGTMVTVSSGGGGSGGGGSGGGGSGGGGSSSETTQPPSVSVSPGQTASITCSGEKLSDKYVHWYQQKPGQSPVMVIYENDRRPSGIPERFSGSNSGNTATLTISGTQAMDEADYFCQFWDSTASAVFGGGTQLTVL
Kd: 3 nM

Binder: BKM0142 (scFv, also called BJM0411 VH-N60A) scFv: EIQLLESGGGLVQPGGSLRLSCAVSGFSITTTGYHWNWVRQAPGKGLEWVGYIYSSGSTSYAPSLKSRFTISRDTSKNTFYLQMNSLRAEDTAVYYCARGDWHYFDYWGQGTMVTVSSGGGGSGGGGSGGGGSGGGGSDSVTTQSPLSLPVTLGQPASISCSGEKLSDKYVHWYQQRPGQSPRMLIYENDRRPSGVPDRFSGSNSGNDATLKISRVEAEDVGVYFCQFWDSTNSAVFGGGTKVEIK
Kd: 1.28 nM
